# credit: paper PMC6274375

Experiment: MTT cytotoxicity assay, A549 cells
Format: cell-based
Conditions: human, mean ± SD (n = 3)
Experimental: Compounds 1–7 were testeded for their cytotoxity against A549 (human lung adenocarcinoma), HeLa (human cervical carcinoma) and HepG2 (human liver hepatocellular carcinoma) cell lines. […] The optical density (OD) of each well was measured on a Genois microplate reader (Tecan GENios, Männedorf, Switzerland) at the wavelength of 570 nm. […] The inhibitory rate of cell growth was calculated according to the following formula: Inhibition rate (%) = (ODcontrol − ODtreated)/ODcontrol × 100%. […]
I'd be grateful if you could share measured IC50 at 72 h for these entries.
Reply with just the number (in µM).

Exercise: Data request, read-out IC50 at 72 h, for CC1(C)CC[C@]2(C(=O)O)CC[C@]3(C)C(=CC[C@@H]4[C@@]5(C)C[C@@H](O)[C@H](O)[C@@](C)(CO)[C@@H]5CC[C@]43C)[C@@H]2C1
Solution: 33.6

Exercise: Data request, read-out IC50 at 72 h, for CC1(C)CC[C@]2(C(=O)O)CC[C@]3(C)C(=CCC4[C@@]5(C)C[C@@H](O)[C@H](O)[C@@](C)(C=O)C5CC[C@]43C)C2C1 (stereo partly drawn)
Solution: 30.2

---

Biological target: α-glucosidase
Assay: α-Glucosidase inhibition assay (PNPG substrate)
Conditions: pH 6.8, 37 °C, read-out: α-glucosidase inhibitory activity IC50
I'd be grateful if you could share measured IC50 for these entries.
Reply with just the number (in µM).

Exercise: Give α-glucosidase IC50 for C=C1CC[C@]2(C(=O)O)CC[C@]3(C)C(=CCC4[C@@]5(C)C[C@@H](O)[C@H](O)[C@@](C)(C=O)C5CC[C@]43C)C2C1 (stereo partly drawn) [Compound 6]
Solution: 220

Exercise: Give α-glucosidase IC50 for CC1(C)CC[C@]2(C(=O)O)CC[C@]3(C)C(=CC[C@@H]4[C@@]5(C)C[C@@H](O)[C@H](O)[C@@](C)(CO)[C@@H]5CC[C@]43C)[C@@H]2C1 [Compound 7, arjunolic acid]
Solution: 40

Exercise: Give α-glucosidase IC50 for CC1(C)CC[C@]2(C(=O)O)CC[C@]3(C)C(=CCC4[C@@]5(C)C[C@@H](O)[C@H](O)[C@@](C)(C=O)C5CC[C@]43C)C2C1 (stereo partly drawn) [Compound 5]
Solution: 47

---

Assay: MTT cytotoxicity, summary statements over the three cell lines
Format: cell-based, human
Conditions: human, A549, HeLa and HepG2 cells (range over the three cell lines), range over the three cell lines and over both compounds, as given in abstract; read-out: Cytotoxicity IC50 values, range over A549, HeLa and HepG2
I'd be grateful if you could share measured IC50 at 72 h for these entries.

Exercise: Data request, read-out IC50 at 72 h, for CC1(C)CC[C@]2(C(=O)O)CC[C@]3(C)C(=CCC4[C@@]5(C)C[C@@H](O)[C@H](O)[C@@](C)(C=O)C5CC[C@]43C)C2C1 (some centres unmarked)
Solution: 23 to 38 µM

Exercise: Data request, read-out IC50 at 72 h, for CC1(C)CC[C@]2(C(=O)O)CC[C@]3(C)C(=CC[C@@H]4[C@@]5(C)C[C@@H](O)[C@H](O)[C@@](C)(CO)[C@@H]5CC[C@]43C)[C@@H]2C1
Solution: 23 to 38 µM

---

Experiment: MTT cytotoxicity assay, HepG2 cells
Assay type: cell-based
Conditions: human, mean ± SD (n = 3)
I'd be grateful if you could share measured IC50 at 72 h for these entries.
Reply with just the number (in µM).

Exercise: Data request, read-out IC50 at 72 h, for CC1(C)CC[C@]2(C(=O)O)CC[C@]3(C)C(=CCC4[C@@]5(C)C[C@@H](O)[C@H](O)[C@@](C)(C=O)C5CC[C@]43C)C2C1 (stereo partly drawn)
Solution: 38

Exercise: Data request, read-out IC50 at 72 h, for CC1(C)CC[C@]2(C(=O)O)CC[C@]3(C)C(=CC[C@@H]4[C@@]5(C)C[C@@H](O)[C@H](O)[C@@](C)(CO)[C@@H]5CC[C@]43C)[C@@H]2C1
Solution: 38.1
